# Test system: MOLM-13
# procedure.summary: Cell growth inhibition, 4-day proliferation assay, MOLM-13
# Type: cell-based
# conditions.used: Homo sapiens, MOLM-13, 96 h, 4-day proliferation assay, Table 4; read-out: Cell IC50 (nM) MOLM13
assay.endpoint: IC50 (nM)

Cc1c(C#Cc2ccc(CCCCO)cn2)sc2c1C(c1ccc(Cl)cc1)=N[C@@H](C)c1nnc(C)n1-2 :: 23

---

# procedure.summary: Plasma exposure after oral gavage in mice, LC-MS/MS
# Type: in vivo
# conditions.used: mouse, in vivo, po, 25 mg/kg
assay.endpoint: concentration at 3 h (ng/mL)

Cc1nnc(C[C@@H]2N=C(c3ccc(Cl)cc3)c3c(sc(C#CC4(C)COC4)c3C)-n3c(C)nnc32)o1 [Compound 149] :: 12800
Cc1c(C#Cc2cnn(C)c2)sc2c1C(c1ccc(Cl)cc1)=N[C@@H](CC(N)=O)c1nnc(C)n1-2 [Compound 166] :: 30
Cc1c(C#CC2CCOCC2)sc2c1C(c1ccc(Cl)cc1)=N[C@@H](CC(N)=O)c1nnc(C)n1-2 [Compound 152] :: 472

---

# System: MDA-MB-231
# procedure.summary: Cell growth inhibition, 4-day proliferation assay, MDA-MB-231
# Type: cell-based
# conditions.used: Homo sapiens, MDA-MB-231; WST-8 assay, Table 7; read-out: Cell growth inhibition (IC50 (nM)) MDA-MB-231
assay.endpoint: IC50

Cc1nnc(C[C@@H]2N=C(c3ccc(Cl)cc3)c3c(sc(C#CC4CCCC4)c3C)-n3c(C)nnc32)o1 :: 22.5 nM
Cc1c(C#Cc2ccccn2)sc2c1C(c1ccc(Cl)cc1)=N[C@@H](Cc1nnc(C3CC3)o1)c1nnc(C)n1-2 :: 52.1 nM
Cc1c(C#Cc2cccnc2)sc2c1C(c1ccc(Cl)cc1)=N[C@@H](CC(=O)N1CCOCC1)c1nnc(C)n1-2 :: 103 nM

---

# measured.on: BRD2 BD1 (Homo sapiens)
# Sequence (P25440 74-180 limits assumed): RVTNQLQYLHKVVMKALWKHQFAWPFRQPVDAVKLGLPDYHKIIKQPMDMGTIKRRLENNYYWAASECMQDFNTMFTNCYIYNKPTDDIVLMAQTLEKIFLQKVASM
# procedure.summary: Competitive FP binding assay, BRD2 BD1
# conditions.used: Table 8, read-out: IC50 (nM) in FP assays BRD2 BD1
assay.endpoint: IC50 (nM)

Cc1c(C#CC2CCOCC2)sc2c1C(c1ccc(Cl)cc1)=N[C@@H](CC(=O)N1CCC(O)CC1)c1nnc(C)n1-2 [Compound 159] :: 34.4
Cc1c(C#CC2CCOCC2)sc2c1C(c1ccc(Cl)cc1)=N[C@@H](CC(=O)N1CC(C)(O)C1)c1nnc(C)n1-2 [Compound 158] :: 40.2
Cc1nnc(C[C@@H]2N=C(c3ccc(Cl)cc3)c3c(sc(C#CC4CCOCC4)c3C)-n3c(C)nnc32)o1 [Compound 145] :: 26
Cc1c(C#CC2CCOCC2)sc2c1C(c1ccc(Cl)cc1)=N[C@@H](CC(=O)N1CCC(C)(O)CC1)c1nnc(C)n1-2 [Compound 157] :: 39.3

---

Each entry below lists one item and its recorded log10(IC50) value.
# measured.on: recombinant BRD4 BD2 (Homo sapiens)
# Construct: for recombinant BRD4 BD1 and BRD4 BD2 proteins
# procedure.summary: Competitive fluorescence-polarization (FP) binding assay, BRD4 BD2
# conditions.used: competitive FP, Table 6; read-out: IC50 as determinined in FP assays BRD4 BD2
assay.endpoint: log10(IC50) (log10 of the value in nM)

Cc1c(C#Cc2ccccn2)sc2c1C(c1ccc(Cl)cc1)=N[C@@H](CC(=O)N1CC3(COC3)C1)c1nnc(C)n1-2 [Compound 124] :: 1.79
Cc1nnc(C[C@@H]2N=C(c3ccc(Cl)cc3)c3c(sc(C#CC4CCOCC4)c3C)-n3c(C)nnc32)o1 [Compound 145] :: 1.68
CC(=O)NNC(=O)C[C@@H]1N=C(c2ccc(Cl)cc2)c2c(sc(C#Cc3ccccn3)c2C)-n2c(C)nnc21 [Compound 128] :: 1.11
Cc1c(C#Cc2ccc(N)nc2)sc2c1C(c1ccc(Cl)cc1)=N[C@@H](CC(=O)N1CCN(C)CC1)c1nnc(C)n1-2 [Compound 120] :: 0.69
Cc1c(C#Cc2cccnc2)sc2c1C(c1ccc(Cl)cc1)=N[C@@H](CC(=O)N1CCC(O)CC1)c1nnc(C)n1-2 [Compound 117] :: 1.02
Cc1c(C#Cc2cccnc2)sc2c1C(c1ccc(Cl)cc1)=N[C@@H](CC(=O)O)c1nnc(C)n1-2 [Compound 112] :: 1.36
Cc1c(C#CC2CCOCC2)sc2c1C(c1ccc(Cl)cc1)=N[C@@H](CC(=O)N1CC(C)(O)C1)c1nnc(C)n1-2 [Compound 158] :: 1.84
Cc1c(C#Cc2ccccn2)sc2c1C(c1ccc(Cl)cc1)=N[C@@H](Cc1nnc(C(C)C)o1)c1nnc(C)n1-2 [Compound 135] :: 1.65
Cc1c(C#Cc2ccc(N)nc2)sc2c1C(c1ccc(Cl)cc1)=N[C@@H](CC(N)=O)c1nnc(C)n1-2 [Compound 121] :: 0.92
Cc1nnc(C[C@@H]2N=C(c3ccc(Cl)cc3)c3c(sc(C#Cc4ccccn4)c3C)-n3c(C)nnc32)s1 [Compound 134] :: 1.77
Cc1c(C#Cc2cccnc2)sc2c1C(c1ccc(Cl)cc1)=N[C@@H](CC(N)=O)c1nnc(C)n1-2 [Compound 113] :: 1.06
Cc1c(C#Cc2cccnc2)sc2c1C(c1ccc(Cl)cc1)=N[C@@H](CC(=O)N1CCNCC1)c1nnc(C)n1-2 [Compound 116] :: 2.09
Cc1c(C#CC2CCOCC2)sc2c1C(c1ccc(Cl)cc1)=N[C@@H](CC(=O)N1CCC(C)(O)CC1)c1nnc(C)n1-2 [Compound 157] :: 1.70
Cc1c(C#Cc2ccccn2)sc2c1C(c1ccc(Cl)cc1)=N[C@@H](CC(C)C)c1nnc(C)n1-2 [Compound 105] :: 1.42

---

Each entry below lists one item and its recorded log10 of concentration at 3 h value.
# procedure.summary: Plasma exposure after oral gavage in mice, LC-MS/MS
# Assay type: in vivo
# conditions.used: mouse, plasma; mice, oral gavage 25 mg/kg, 3 h; read-out: Plasma concentration (ng/mL) 3 h
assay.endpoint: log10 of concentration at 3 h (log10 of the value in ng/mL)

Cc1c(C#CC2CCOCC2)sc2c1C(c1ccc(Cl)cc1)=N[C@@H](CC(=O)N1CCC(C)(O)CC1)c1nnc(C)n1-2 :: 3.58
Cc1c(C#Cc2ccccn2)sc2c1C(c1ccc(Cl)cc1)=N[C@@H](CC(=O)N1CCN(C)CC1)c1nnc(C)n1-2 :: 2.57
Cc1c(C#Cc2ccccn2)sc2c1C(c1ccc(Cl)cc1)=N[C@@H](CC(N)=O)c1nnc(C)n1-2 :: 2.78
Cc1nnc(C[C@@H]2N=C(c3ccc(Cl)cc3)c3c(sc(C#CC4CC4)c3C)-n3c(C)nnc32)o1 :: 3.43
Cc1c(C#Cc2ccccn2)sc2c1C(c1ccc(Cl)cc1)=N[C@@H](CC(=O)N1CCOCC1)c1nnc(C)n1-2 :: 2.78
Cc1nnc(C[C@@H]2N=C(c3ccc(Cl)cc3)c3c(sc(C#CC4CCOCC4)c3C)-n3c(C)nnc32)o1 :: 3.69

---

# measured.on: recombinant BRD4 BD1 (Homo sapiens)
# Construct: for recombinant BRD4 BD1 and BRD4 BD2 proteins
# procedure.summary: Competitive fluorescence-polarization (FP) binding assay, BRD4 BD1
# conditions.used: competitive FP, Table 6; read-out: IC50 as determinined in FP assays BRD4 BD1
pIC50: −log10 of the molar value.
assay.endpoint: pIC50

Cc1c(C#Cc2cccnc2)sc2c1C(c1ccc(Cl)cc1)=N[C@@H](CC(N)=O)c1nnc(C)n1-2 :: 8.39
Cc1c(C#Cc2cccnc2)sc2c1C(c1ccc(Cl)cc1)=N[C@@H](CC(=O)N1CCC(O)CC1)c1nnc(C)n1-2 :: 8.20
Cc1c(C#Cc2ccccn2)sc2c1C(c1ccc(Cl)cc1)=N[C@@H](CC(=O)NC1CCNCC1)c1nnc(C)n1-2 :: 7.90
CC(=O)NNC(=O)C[C@@H]1N=C(c2ccc(Cl)cc2)c2c(sc(C#Cc3ccccn3)c2C)-n2c(C)nnc21 :: 7.66
Cc1c(C#Cc2ccccn2)sc2c1C(c1ccc(Cl)cc1)=N[C@@H](CC(=O)N1CC(F)(F)C1)c1nnc(C)n1-2 :: 7.59
Cc1c(C#Cc2cccnc2)sc2c1C(c1ccc(Cl)cc1)=N[C@@H](CC(=O)OC(C)(C)C)c1nnc(C)n1-2 :: 8.32
CNC(=O)CCn1cc(C#Cc2sc3c(c2C)C(c2ccc(Cl)cc2)=N[C@@H](C)c2nnc(C)n2-3)cn1 :: 8.31

---

# procedure.summary: Plasma exposure after oral gavage in mice, LC-MS/MS
# Type: in vivo
# conditions.used: mouse, plasma; mice, oral gavage 25 mg/kg, 1 h; read-out: Plasma concentration (ng/mL) 1 h
Each entry below lists one item and its recorded concentration at 1 h value.
assay.endpoint: concentration at 1 h (ng/mL)

Cc1nnc(C[C@@H]2N=C(c3ccc(Cl)cc3)c3c(sc(C#CC4CC4)c3C)-n3c(C)nnc32)o1 [Compound 143] :: 3170
Cc1nnc(C[C@@H]2N=C(c3ccc(Cl)cc3)c3c(sc(C#CC4CCN(C)CC4)c3C)-n3c(C)nnc32)o1 [Compound 175] :: 413
Cc1c(C#Cc2ccccn2)sc2c1C(c1ccc(Cl)cc1)=N[C@@H](CC(=O)Nc1ccc(O)cc1)c1nnc(C)n1-2 [Compound 125] :: 2520
Cc1nnc(C[C@@H]2N=C(c3ccc(Cl)cc3)c3c(sc(C#CC(C)(C)O)c3C)-n3c(C)nnc32)o1 [Compound 144] :: 4160
